Target: Nanoluciferase-BRD9 fusion protein (3×FLAG-NLuc-BRD9) in SYO-1 cells (Homo sapiens, UniProt Q9H8M2)
Construct: expressed in transfected cells; host or cells: SYO-1
Sequence (Q9H8M2 whole entry, the tested form may be a part): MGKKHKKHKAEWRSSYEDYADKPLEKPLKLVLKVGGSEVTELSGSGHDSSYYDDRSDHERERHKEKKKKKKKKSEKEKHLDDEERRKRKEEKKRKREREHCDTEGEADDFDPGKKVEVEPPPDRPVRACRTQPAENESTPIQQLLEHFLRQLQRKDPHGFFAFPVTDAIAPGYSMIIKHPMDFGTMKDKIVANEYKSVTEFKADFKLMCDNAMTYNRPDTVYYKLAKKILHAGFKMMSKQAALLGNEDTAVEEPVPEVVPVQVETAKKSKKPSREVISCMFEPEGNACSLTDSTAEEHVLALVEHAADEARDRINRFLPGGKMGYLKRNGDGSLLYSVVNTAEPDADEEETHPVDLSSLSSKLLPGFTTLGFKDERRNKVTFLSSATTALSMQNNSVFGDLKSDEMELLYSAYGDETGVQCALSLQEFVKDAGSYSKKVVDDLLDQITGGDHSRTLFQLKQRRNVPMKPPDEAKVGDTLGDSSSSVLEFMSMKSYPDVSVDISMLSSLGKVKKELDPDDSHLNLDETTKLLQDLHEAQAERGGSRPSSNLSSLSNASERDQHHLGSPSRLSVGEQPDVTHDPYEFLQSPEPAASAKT
Assay: SYO1 BRD9 NanoLuc degradation assay
Type: cell-based
Conditions: Table 6B; SYO-1 cells expressing 3×FLAG-NLuc-BRD9, 6 hours incubation, 1 μM top dose; read-out: SYO1 BRD9-NanoLuc degradation IC50
Protocol: Procedure: A stable SYO-1 cell line expressing 3×FLAG-NLuc-BRD9 was generated. On day 0 cells were seeded in 30 μL media into each well of 384-well cell culture plates. The seeding density was 8000 cells/well. On day 1, cells were treated with 30 nL DMSO or 30 nL of 3-fold serially DMSO-diluted compounds (10 points in duplicates with 1 μM as final top dose). Subsequently plates were incubated for 6 hours in a standard tissue culture incubator and equilibrated at room temperature for 15 minutes. […]
QUANTITY_MEASURED: DC50

// solved cases for DC50 follow
MOLECULE	DC50
COc1cc(-c2cn(C)c(=O)c3cc(C(=O)NC4CCN(CCCCCOc5ccc6c(c5)C(=O)N(C5CCC(=O)NC5=O)C6=O)CC4F)sc23)cc(OC)c1CN(C)C (stereo not shown)	< 10 nM
COc1cc(-c2cn(C)c(=O)c3cc(C(=O)NCC4CC5(C4)CN(CCN4CCN(c6ccc7c(c6)C(=O)N(C6CCC(=O)NC6=O)C7=O)CC4)C5)sc23)cc(OC)c1CN(C)C (stereo not shown)	> 10 nM
COc1cc(-c2cn(C)c(=O)c3cc(C(=O)NCC4CC5(CCN(CCCN6CCN(c7ccc8c(c7)C(=O)N(C7CCC(=O)NC7=O)C8=O)CC6)CC5)C4)sc23)cc(OC)c1CN(C)C (stereo not shown)	< 10 nM
COc1cc(-c2cn(C)c(=O)c3cc(C(=O)NC4CC5(C4)CN(C(=O)CCN4CCN(c6ccc7c(c6)C(=O)N(C6CCC(=O)NC6=O)C7=O)CC4)C5)sc23)cc(OC)c1CN(C)C (stereo not shown)	< 10 nM
COc1cc(-c2cn(C)c(=O)c3cc(C(=O)NCC4CC5(CCN(CCN6CCN(c7ccc8c(c7)C(=O)N(C7CCC(=O)NC7=O)C8=O)CC6)CC5)CO4)sc23)cc(OC)c1CN(C)C (stereo not shown)	< 10 nM

Record COc1cc(-c2cn(C)c(=O)c3scnc23)cc(OC)c1CN1CC(CN2CCC3(CC2)CN(c2ccc4c(c2)C(=O)N(C2CCC(=O)NC2=O)C4)C3)C1 (stereo not shown) , field DC50: < 10 nM

Lab note: COc1cc(-c2cn(C)c(=O)c3cc(C(=O)NC4CCN(CCCCCOc5ccc6c(c5)C(=O)N(C5CCC(=O)NC5=O)C6=O)CC4(F)F)sc23)cc(OC)c1CN(C)C (stereo not shown) gave DC50 of < 10 nM

# molecule COc1cc(-c2cn(C)c(=O)c3cc(C(=O)NC4CCN(C(=O)CN5CCN(c6ccc7c(c6)C(=O)N(C6CCC(=O)NC6=O)C7=O)CC5)CC4)sc23)cc(OC)c1CN(C)C (stereo not shown) ; its DC50 = < 10 nM

So, COc1cc(-c2cn(C)c(=O)c3cc(C(=O)NC4CC5CC4CN5CCCCCOc4cccc5c4C(=O)N(C4CCC(=O)NC4=O)C5=O)sc23)cc(OC)c1CN(C)C (stereo not shown) ? Its DC50 was > 100 nM

molecule COc1cc(-c2cn(C)c(=O)c3cc(C(=O)NC4C[C@@H]5CN(CCN6CCN(c7ccc8c(c7)C(=O)N(C7CCC(=O)NC7=O)C8=O)CC6)C[C@H]45)sc23)cc(OC)c1CN(C)C (stereo partly shown) , DC50 observed: > 100 nM

###

Biological target: Nanoluciferase-BRD9 fusion protein (3×FLAG-NLuc-BRD9) in SYO-1 cells (Homo sapiens, UniProt Q9H8M2)
Construct: expressed in transfected cells; host or cells: SYO-1
Experiment: SYO1 BRD9 NanoLuc degradation assay
Assay type: cell-based
Settings: Table 6B; SYO-1 cells expressing 3×FLAG-NLuc-BRD9, 6 hours incubation, 1 μM top dose; read-out: SYO1 BRD9-NanoLuc degradation IC50
DC50 by entry:

A selection of reference data follows.
MOLECULE	QUANTITY_MEASURED	OBSERVED_VALUE
COc1cc(-c2cn(C)c(=O)c3occc23)cc(OC)c1CN1CC(CN2CCC3(CC2)CN(c2ccc4c(c2)C(=O)N(C2CCC(=O)NC2=O)C4)C3)C1 (stereo not drawn)	DC50	< 10 nM
COc1cc(-c2cn(C)c(=O)c3cc(C(=O)NC4CC5CN(C(=O)CCN6CCN(c7ccc8c(c7)C(=O)N(C7CCC(=O)NC7=O)C8=O)CC6)CC5C4)sc23)cc(OC)c1CN(C)C (stereo not drawn)	DC50	> 10 nM

The record that follows has no DC50 shown yet.
Entry COc1cc(-c2cn(C)c(=O)c3cc(C(=O)NC4CCN(C(=O)CCCCOc5cccc6c5C(=O)N(C5CCC(=O)NC5=O)C6=O)CC4)sc23)cc(OC)c1CN1CCC1 (stereo not drawn) , DC50 reported as < 10 nM

###

Target: Nanoluciferase-BRD9 fusion protein (3×FLAG-NLuc-BRD9) in SYO-1 cells (Homo sapiens, UniProt Q9H8M2)
Construct: expressed in transfected cells; host or cells: SYO-1
Test: SYO1 BRD9 NanoLuc degradation assay
Type: cell-based
Details: Table 6C; SYO-1 cells expressing 3×FLAG-NLuc-BRD9, 6 hours incubation, 1 μM top dose; read-out: SYO1 BRD9-NanoLuc degradation IC50
QUANTITY_MEASURED: DC50

Check out these entries, answers already filled in.
COMPOUND	QUANTITY_MEASURED	OBSERVED_VALUE
COc1cc(-c2cn(C)c(=O)c3ccsc23)cc(OC)c1CN1CC(C#Cc2ccc3c(c2)C(=O)N(C2CCC(=O)NC2=O)C3)C1 (stereo not drawn) [Compound D92]	DC50	< 0.01 µM
COc1cc(OC)cc(-c2cn(C)c(=O)c3cc(C(=O)NC4CN(c5ccc6c(c5)C(=O)N(C5CCC(=O)NC5=O)C6)C4)sc23)c1 (stereo not drawn) [Compound D115]	DC50	< 0.01 µM

Recorded DC50 (compound COc1cc(-c2cn(C)c(=O)c3cc(C)sc23)cc(OC)c1CN1CCC(CN2CCC3(CC2)CC(Oc2ccc4c(c2)C(=O)N(C2CCC(=O)NC2=O)C4=O)C3)CC1 (stereo not drawn) [Compound D173] ): < 0.01 µM

###

Molecular target: Nanoluciferase-BRD9 fusion protein (3×FLAG-NLuc-BRD9) in SYO-1 cells (Homo sapiens)
Construct: expressed in transfected cells; host or cells: SYO-1
Assay: SYO1 BRD9 NanoLuc degradation assay
Type: cell-based
Settings: Table 6B; SYO-1 cells expressing 3×FLAG-NLuc-BRD9, 6 hours incubation, 1 μM top dose; read-out: SYO1 BRD9-NanoLuc degradation IC50
# Lookup of reported DC50 keyed by entry

COMPOUND	DC50
COc1cc(-c2cn(C)c(=O)c3cc(C(=O)NC4CCC(N(C)CCCCOc5cccc6c5C(=O)N(C5CCC(=O)NC5=O)C6=O)CC4)sc23)cc(OC)c1CN(C)C (stereo not drawn)	> 0.1 µM
COc1cc(-c2cn(C)c(=O)c3cc(C(=O)NC4CCN(C(=O)CN5CCC6(CC5)CN(c5ccc7c(c5)CN(C5CCC(=O)NC5=O)C7=O)C6)CC4(F)F)sc23)cc(OC)c1CN(C)C (stereo not drawn)	< 0.01 µM

Lab book: DC50 of COc1cc(-c2cn(C)c(=O)c3cc(C(=O)NCC4CC5(CCN(CCN6CCN(c7ccc8c(c7)C(=O)N(C7CCC(=O)NC7=O)C8=O)CC6)CC5)C4)sc23)cc(OC)c1CN(C)C (stereo not drawn) noted as < 0.01 µM

###

Target: Nanoluciferase-BRD9 fusion protein (3×FLAG-NLuc-BRD9) in SYO-1 cells (Homo sapiens)
Construct: expressed in transfected cells; host or cells: SYO-1
Assay: SYO1 BRD9 NanoLuc degradation assay
Type: cell-based
Details: Table 6B; SYO-1 cells expressing 3×FLAG-NLuc-BRD9, 6 hours incubation, 1 μM top dose; read-out: SYO1 BRD9-NanoLuc degradation IC50
QUANTITY_MEASURED: DC50

Worked set:
MOLECULE	OBSERVED_VALUE
COc1cc(-c2cn(C)c(=O)c3cc(C(=O)NC4CCN(C)CC4)sc23)cc(OC)c1CN(C)CC(=O)NCCOCCOc1cccc2c1C(=O)N(C1CCC(=O)NC1=O)C2=O (stereo not shown)	> 100 nM
COc1cc(-c2cn(C)c(=O)c3cc(C(=O)NC4CCN(CC(F)(F)CCCOc5ccc6c(c5)C(=O)N(C5CCC(=O)NC5=O)C6=O)CC4)sc23)cc(OC)c1CN(C)C (stereo not shown)	< 10 nM

Measured DC50 of COc1cc(-c2cn(C)c(=O)c3cc(C(=O)NC4CCN(C5CCN(c6ccc7c(c6)C(=O)N(C6CCC(=O)NC6=O)C7)CC5)CC4(F)F)sc23)cc(OC)c1CN(C)C (stereo not shown) : < 10 nM

DC50 in this record for COc1cc(-c2cn(C)c(=O)c3cc(C(=O)NC4CC5(CCN(CCN6CCN(c7ccc8c(c7)C(=O)N([C@@H]7CCC(=O)NC7=O)C8=O)CC6)C5)C4)sc23)cc(OC)c1CN(C)C (stereo partly shown) : < 10 nM

Given item COc1cc(-c2cn(C)c(=O)c3cc(C(=O)NC4CC5(CCN(C(=O)CCN6CCN(c7ccc8c(c7)C(=O)N(C7CCC(=O)NC7=O)C8=O)CC6)C5)C4)sc23)cc(OC)c1CN(C)C (stereo not shown) , the value recorded as its DC50 is < 10 nM

Measured DC50 of COc1cc(-c2cn(C)c(=O)c3cc(C(=O)NC4CC5CC4CN5C(=O)CCN4CCN(c5ccc6c(c5)C(=O)N(C5CCC(=O)NC5=O)C6=O)CC4)sc23)cc(OC)c1CN(C)C (stereo not shown) : > 10 nM

Recorded DC50 (molecule COc1cc(-c2cn(C)c(=O)c3cc(C(=O)NC4CCN(CCCCCOc5ccc6c(c5)C(=O)N(C5CCC(=O)NC5=O)C6=O)CC4)sc23)cc(OC)c1CN(C)C (stereo not shown) ): < 10 nM

Reported DC50 ( COc1cc(-c2cn(C)c(=O)c3cc(C(=O)NC4CCN(C)CC4(F)F)sc23)cc(OC)c1CN1CCC(CCN2CCN(c3ccc4c(c3)C(=O)N(C3CCC(=O)NC3=O)C4=O)CC2)CC1 (stereo not shown) ) = < 10 nM

// DC50 value for COc1cc(-c2cn(C)c(=O)c3cc(C(=O)NC4C[C@@H]5CN(C(=O)CCN6CCN(c7ccc8c(c7)C(=O)N(C7CCC(=O)NC7=O)C8=O)CC6)C[C@H]45)sc23)cc(OC)c1CN(C)C (stereo partly shown) : > 100 nM

For reference, reported DC50 for COc1cc(-c2cn(C)c(=O)c3cc(C(=O)NCC4CC5(CCN(C(=O)CCN6CCN(c7ccc8c(c7)C(=O)N(C7CCC(=O)NC7=O)C8=O)CC6)CC5)CO4)sc23)cc(OC)c1CN(C)C (stereo not shown) stands at > 10 nM
